# Tested on: UACC-62 melanoma
# experiment: NCI tumour cell line growth inhibition, 48 h
Consider the following compounds and their measured TGI readings.
Write it as a number; the unit µM goes unstated.

[[record]]
compound = "C=C1CC[C@@]2(C)[C@@H]([C@@H]1C)[C@H]1CC[C@@H]3[C@@]4(C)CC[C@H](O)C(C)(C)[C@@H]4CC[C@@]3(C)[C@]1(C)C[C@@H]2O"
test_result = 28.2


// query Find the measured TGI of Cc1c(C)c2c(c(C)c1OC(=O)CCC(=O)[O-])CCC(C)(CCCCCCCCCCC[P+](c1ccccc1)(c1ccccc1)c1ccccc1)O2 (stereo not drawn) and report it.
// result 0.727

// query Find the measured TGI of Cc1cc(F)c(C(=O)Nc2cccc(-c3nncn3C(C)C)n2)cc1-n1cnc(C2CC2)c1 and report it.
// result 48

// query Find the measured TGI of C=C1C(=O)OC2C1CCC(=C)C1CC(O)C(=C)C12 (stereo not drawn) and report it.
// result 26.6
